Source of measurements: patent US20250163064A1

target desc: His-tagged KRAS G12D protein (Homo sapiens (Human), UniProt P01116, G12D)
Sequence (P01116-2 other isoform, or with tags, fused parts or gaps G12D): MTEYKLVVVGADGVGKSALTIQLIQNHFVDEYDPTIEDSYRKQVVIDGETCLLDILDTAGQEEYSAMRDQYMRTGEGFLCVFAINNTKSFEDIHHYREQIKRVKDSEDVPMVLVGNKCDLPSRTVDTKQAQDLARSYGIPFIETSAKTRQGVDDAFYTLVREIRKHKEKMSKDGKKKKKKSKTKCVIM
method description: KRAS G12D TR-FRET Assay
run parameters: biotinylated KRPep-2d, 10 μM GDP
pIC50: −log10 of the molar value.
// label = Fulfilled if pIC50 is not less than 8, otherwise Not fulfilled

Solved cases below.
[
  {
    "molecule": "N#Cc1c(N)sc2c(F)ccc(-c3c(Cl)cc4c(N5CCCC6(CCO6)C5)nc(OC[C@@]56CCCN5C[C@H](F)C6)nc4c3F)c12 (some centres unmarked)",
    "label class": "Not fulfilled"
  },
  {
    "molecule": "N#Cc1c(N)sc2c(F)ccc(-c3c(Cl)cc4c(C5=CCCOC5)nc(OC[C@@]56CCCN5C[C@H](F)C6)nc4c3F)c12 [Example 70, bis(2,2,2-trifluoroacetate)]",
    "label class": "Not fulfilled"
  }
]

Alright, here's another molecule for you.
q: Quick check: does N#Cc1c(N)sc2c(F)ccc(-c3c(Cl)cc4c(N5CC6COC(C6)C5)nc(OC[C@@]56CCCN5C[C@H](F)C6)nc4c3F)c12 (some centres unmarked) have pIC50 greater than or equal to 8?
a: Fulfilled

* * *

Recorded measurements of pIC50, one per entry
target desc: His-tagged KRAS G12D protein (Homo sapiens (Human), UniProt P01116, G12D)
method description: KRAS G12D TR-FRET Assay
run parameters: biotinylated KRPep-2d, 10 μM GDP
Procedure: Compounds of interest were prepared in a dose-response titration in DMSO, and 80 nL were added via Labcyte Echo to each well of a 384-well plate (Perkin Elmer 6008280). […] Plates were read using PerkinElmer En Vision (ex: 320 nm, em1: 665 nm, em2: 615 nm) and em1/em2 data was used to generate curve fits using a 4-parameter logistic model to calculate IC50 values.
To interpret pIC50, take it as minus log10 of a concentration measured in moles per litre.

response.value for C[C@@]1(O)CCCN(c2nc(OC[C@@]34CCCN3C[C@H](F)C4)nc3c(F)c(-c4ccc(F)c5sc(N)c(C#N)c45)ncc23)C1 (field: pIC50) = 7.77

response.value for N#Cc1c(N)sc2c(F)ccc(-c3c(Cl)cc4c(N5CCC[C@@H](S(N)(=O)=O)C5)nc(OC[C@@]56CCCN5C[C@H](F)C6)nc4c3F)c12 (field: pIC50) = 8.22

response.value for C[C@@H]1[C@H](O)CCN1c1nc(OC[C@@]23CCCN2C[C@H](F)C3)nc2c(F)c(-c3ccc(F)c4sc(N)c(C#N)c34)c(Cl)cc12 (field: pIC50) = 7.92

response.value for C[C@@]1(CO)CCCN(c2nc(OC[C@@]34CCCN3C[C@H](F)C4)nc3c(F)c(-c4ccc(F)c5sc(N)c(C#N)c45)c(Cl)cc23)C1 (field: pIC50) = 7.82

response.value for N#Cc1c(N)sc2c(F)ccc(-c3c(Cl)cc4c(N5CCCC6(CCS(=O)(=O)C6)C5)nc(OC[C@@]56CCCN5C[C@H](F)C6)nc4c3F)c12 (some centres unmarked) (field: pIC50) = 8.00
